# Tested system: human amnionic whole cell cyclooxygenase-2 (WISH cells) (Homo sapiens, UniProt P35354)
# Construct: endogenous in cells
# Test summary: IL-1β induced PGE2 production in WISH cells
# Conditions: read-out: Wish IC50 (parenthetical value)
Measured attribute: IC50 (nM)
Give a bare numeral; the unit nM is implied.

compound=CC(C)(C)COc1c(-c2ccc(S(C)(=O)=O)cc2)cnn(-c2cccc(Cl)c2)c1=O value_units=nM value_reported=4
compound=CS(=O)(=O)c1ccc(-c2cnn(-c3cccc(Cl)c3)c(=O)c2Cc2cccc(F)c2)cc1 value_units=nM value_reported=47.4
compound=CS(=O)(=O)c1ccc(-c2cnn(-c3cccc(Cl)c3)c(=O)c2Cc2ccccc2)cc1 value_units=nM value_reported=18

Kindly review the next compound as well.
**Query** Which IC50 reading was recorded for the compound C[S+]([O-])c1ccc(-c2cnn(CC(F)(F)F)c(=O)c2-c2ccc(Cl)cc2)cc1 (stereo not shown) ?
**Result** 126

---

Parameter: melting point. Scope: all listed entries.

Before answering, review these 3 worked examples.
smiles_representation=NS(=O)(=O)c1ccc(-c2cnn(-c3ccc(F)c(F)c3)c(=O)c2Oc2ccc(F)cc2)cc1F measured_attribute="melting point" value_reported="224 to 226 °C"
smiles_representation=CC(C)(C)C(=O)Cn1ncc(-c2ccc(S(C)(=O)=O)cc2)c(-c2ccc(F)cc2)c1=O measured_attribute="melting point" value_reported="168 to 170 °C"
smiles_representation=CS(=O)(=O)c1ccc(-c2cnn(CC3CC3)c(=O)c2-c2ccc(F)cc2)cc1 measured_attribute="melting point" value_reported="118 to 121 °C"

**Query** Form field: reported melting point of `Cc1ccc(-c2c(-c3ccc(S(N)(=O)=O)cc3)cnn(-c3ccc(F)c(F)c3)c2=O)cc1F`
**Result** 198 to 200 °C

**Query** Fill in: melting point of `COc1c(-c2ccc(S(C)(=O)=O)cc2)cnn(-c2ccc(F)c(F)c2)c1=O` is ___
**Result** 113 to 115 °C

---

# Tested system: recombinant human Cox-2 (r-hu Cox-2) (Homo sapiens, UniProt P35354)
# Construct: made in house; host or cells: baculovirus/Sf9 insect cells (microsomes)
# Sequence (P35354 18-604): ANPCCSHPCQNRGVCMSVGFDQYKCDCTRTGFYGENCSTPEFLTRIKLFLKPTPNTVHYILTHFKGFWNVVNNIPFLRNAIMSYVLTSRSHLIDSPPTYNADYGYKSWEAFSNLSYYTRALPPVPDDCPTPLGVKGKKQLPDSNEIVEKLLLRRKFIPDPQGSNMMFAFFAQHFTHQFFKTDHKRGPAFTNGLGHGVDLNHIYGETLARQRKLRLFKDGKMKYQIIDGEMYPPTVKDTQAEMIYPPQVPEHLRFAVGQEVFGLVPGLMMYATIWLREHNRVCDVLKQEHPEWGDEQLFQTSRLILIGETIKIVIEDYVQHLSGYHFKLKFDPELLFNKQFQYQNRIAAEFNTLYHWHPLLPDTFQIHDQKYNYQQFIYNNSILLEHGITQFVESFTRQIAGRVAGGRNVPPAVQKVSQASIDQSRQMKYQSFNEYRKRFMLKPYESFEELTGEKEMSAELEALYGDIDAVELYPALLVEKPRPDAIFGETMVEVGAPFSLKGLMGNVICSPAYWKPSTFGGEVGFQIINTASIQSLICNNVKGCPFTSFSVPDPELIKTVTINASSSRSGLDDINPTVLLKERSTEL
# Test summary: Recombinant human PGHS-2 enzyme assay (RHUCX2)
# Type: biochemical
# Conditions: 0.1 μM; read-out: RHUCX2 % Inh. at Dose
Measured attribute: inhibition at 0.1 µM (%)
// note: answer is a bare numeric in %

In the examples that follow, each entry is paired with its recorded inhibition at 0.1 µM.
compound=CS(=O)(=O)c1ccc(-c2cnn(CC(F)(F)F)c(=O)c2Oc2cccnc2)cc1 measured_attribute="inhibition at 0.1 µM" value_reported=33
compound=CC(C)CCc1c(-c2ccc(S(C)(=O)=O)c(F)c2)cnn(-c2ccc(F)c(Cl)c2)c1=O measured_attribute="inhibition at 0.1 µM" value_reported=87
compound=NS(=O)(=O)c1ccc(-c2cnn(Cc3ccc(F)c(F)c3)c(=O)c2-c2ccc(F)cc2)cc1 measured_attribute="inhibition at 0.1 µM" value_reported=51
compound=CS(=O)(=O)c1ccc(-c2cnn(Cc3ccccc3)c(=O)c2-c2ccc(F)c(Cl)c2)cc1 measured_attribute="inhibition at 0.1 µM" value_reported=83
compound=CS(=O)(=O)c1ccc(-c2cnn(-c3cccc(Cl)c3)c(=O)c2Cc2ccc(F)cc2)cc1 measured_attribute="inhibition at 0.1 µM" value_reported=48
compound=CS(=O)(=O)c1ccc(-c2cnn(-c3ccccc3)c(=O)c2-c2ccc(F)cc2)cc1 measured_attribute="inhibition at 0.1 µM" value_reported=9
compound="CCC(C)CCOc1c(-c2ccc(S(C)(=O)=O)cc2)cnn(-c2ccc(F)c(F)c2)c1=O (stereo not shown)" measured_attribute="inhibition at 0.1 µM" value_reported=63
compound=CC(C)CCCc1c(-c2ccc(S(C)(=O)=O)cc2)cnn(-c2ccc(F)c(F)c2)c1=O measured_attribute="inhibition at 0.1 µM" value_reported=62
compound=CS(=O)(=O)c1ccc(-c2cnn(-c3cccc(Cl)c3)c(=O)c2CCc2ccccc2)cc1 measured_attribute="inhibition at 0.1 µM" value_reported=59
compound=CC(C)(C)COc1c(-c2ccc(S(C)(=O)=O)cc2)cnn(-c2cccc(Cl)c2)c1=O measured_attribute="inhibition at 0.1 µM" value_reported=83

**Query** So what's the measured inhibition at 0.1 µM for this one? `Cc1ccc(-c2c(-c3ccc(S(C)(=O)=O)cc3)cnn(CC(F)(F)F)c2=O)cc1F`
**Result** 75

**Query** // lookup inhibition at 0.1 µM for `CS(=O)(=O)c1ccc(-c2cnn(-c3ccc(F)c(F)c3)c(=O)c2Cc2ccc(F)cc2)cc1`
**Result** 61

**Query** Returns the measured inhibition at 0.1 µM for the input compound. Input: `CS(=O)(=O)c1ccc(-c2cnn(CC3CC3)c(=O)c2-c2ccc(F)cc2)cc1`
**Result** 44

---

Measured attribute: melting point

molecule="CS(=O)(=O)c1ccc(-c2cnn(-c3ccc(F)cc3)c(=O)c2OCC2CC2)cc1 [Example 416]" value_reported="166 to 167 °C"
molecule="NS(=O)(=O)c1ccc(-c2cnn(-c3ccc(F)cc3)c(=O)c2-c2ccc(F)cc2)cc1 [Example 89]" value_reported="213 to 216 °C"
molecule="CC1(n2ncc(-c3ccc(S(C)(=O)=O)cc3)c(-c3ccc(F)cc3)c2=O)CCCC1 [Example 134]" value_reported="107 to 110 °C"

**Query** Given the molecule CS(=O)(=O)c1ccc(-c2cnn(-c3ccc(F)c(Cl)c3)c(=O)c2-c2ccc(F)cc2)cc1 [Example 187] , what is its reported melting point?
**Result** 155 to 157 °C

**Query** Recorded melting point of Cc1cc(-c2c(-c3ccc(S(C)(=O)=O)cc3)cnn(-c3ccc(F)cc3)c2=O)ccc1F [Example 245] , please.
**Result** 245 to 247 °C

**Query** Suppose we examine the molecule CS(=O)(=O)c1ccc(-c2cnn(-c3ccc(F)c(F)c3)c(=O)c2-c2ccc(F)cc2)cc1 [Example 182] ; what melting point value has been reported?
**Result** 109 to 110 °C

**Query** // melting point lookup, key: CC(C)CCc1c(-c2ccc(S(N)(=O)=O)cc2)cnn(-c2ccc(F)cc2)c1=O [Example 396]
**Result** 180 to 183 °C

**Query** Item CC(C)COc1c(-c2ccc(S(N)(=O)=O)cc2)cnn(-c2cccc(Cl)c2)c1=O [Example 395] has what recorded melting point?
**Result** 80 to 85 °C

**Query** What measured melting point goes with COCCCNc1c(-c2ccc(S(C)(=O)=O)cc2)cnn(CC(F)(F)F)c1=O [Example 295] ?
**Result** 110 to 113 °C

**Query** Recorded melting point for CS(=O)(=O)c1ccc(-c2cnn(Cc3ccccc3)c(=O)c2Oc2ccc(F)cc2)cc1 [Example 75] , please?
**Result** 188 to 190 °C

**Query** I'd like to know its melting point. The molecule in question is CS(=O)(=O)c1ccc(-c2cnn(-c3ccc(F)c(F)c3)c(=O)c2C2CCCCC2)cc1 [Example 232]
**Result** 80 to 83 °C

**Query** Give the measured melting point of CS(=O)(=O)c1ccc(-c2cnn(-c3ccc([N+](=O)[O-])cc3)c(=O)c2-c2ccc(F)cc2)cc1 [Example 157] .
**Result** 110 to 116 °C

**Query** For CC(C)CCc1c(-c2ccc(S(C)(=O)=O)cc2)cnn(-c2ccc(F)c(Cl)c2)c1=O [Example 257] , what is its reported melting point?
**Result** 55 to 58 °C

**Query** Quick one: melting point for CS(=O)(=O)c1ccc(-c2cnn(CC(F)(F)F)c(=O)c2SCc2ccccc2)cc1 [Example 285] ?
**Result** 108 to 111 °C

**Query** What value of melting point has been recorded for this entry: CS(=O)(=O)c1ccc(-c2cnn(-c3cccc(Cl)c3)c(=O)c2OCCC2CC2)cc1 [Example 419]
**Result** 124 to 128 °C

**Query** So what does the record say about melting point for CC(C)(O)CCOc1c(-c2ccc(S(N)(=O)=O)cc2)cnn(-c2ccc(F)cc2)c1=O [Example 470] ?
**Result** 163 to 164 °C
